Assay Target: T1, IL-18 receptors on HEK-Blue IL-18 reporter cells (UniProt Q13478 19-541; O95256 20-599, limits assumed); further: unit not given here
T1 sequence (looked up) 1: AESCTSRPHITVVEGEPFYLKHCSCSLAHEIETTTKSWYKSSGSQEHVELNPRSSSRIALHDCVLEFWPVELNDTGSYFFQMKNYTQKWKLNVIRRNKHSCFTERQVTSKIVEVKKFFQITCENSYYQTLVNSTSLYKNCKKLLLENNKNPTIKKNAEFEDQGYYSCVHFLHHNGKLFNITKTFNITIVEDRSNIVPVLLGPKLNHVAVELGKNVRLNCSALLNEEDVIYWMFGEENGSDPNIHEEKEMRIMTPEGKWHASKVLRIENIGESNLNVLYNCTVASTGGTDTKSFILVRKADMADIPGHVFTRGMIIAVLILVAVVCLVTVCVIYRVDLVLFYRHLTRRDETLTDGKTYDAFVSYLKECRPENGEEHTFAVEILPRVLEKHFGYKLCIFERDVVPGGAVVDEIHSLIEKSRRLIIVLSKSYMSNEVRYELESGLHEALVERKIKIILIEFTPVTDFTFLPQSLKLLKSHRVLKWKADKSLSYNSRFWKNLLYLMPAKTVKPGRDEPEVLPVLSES
T1 sequence (looked up) 2: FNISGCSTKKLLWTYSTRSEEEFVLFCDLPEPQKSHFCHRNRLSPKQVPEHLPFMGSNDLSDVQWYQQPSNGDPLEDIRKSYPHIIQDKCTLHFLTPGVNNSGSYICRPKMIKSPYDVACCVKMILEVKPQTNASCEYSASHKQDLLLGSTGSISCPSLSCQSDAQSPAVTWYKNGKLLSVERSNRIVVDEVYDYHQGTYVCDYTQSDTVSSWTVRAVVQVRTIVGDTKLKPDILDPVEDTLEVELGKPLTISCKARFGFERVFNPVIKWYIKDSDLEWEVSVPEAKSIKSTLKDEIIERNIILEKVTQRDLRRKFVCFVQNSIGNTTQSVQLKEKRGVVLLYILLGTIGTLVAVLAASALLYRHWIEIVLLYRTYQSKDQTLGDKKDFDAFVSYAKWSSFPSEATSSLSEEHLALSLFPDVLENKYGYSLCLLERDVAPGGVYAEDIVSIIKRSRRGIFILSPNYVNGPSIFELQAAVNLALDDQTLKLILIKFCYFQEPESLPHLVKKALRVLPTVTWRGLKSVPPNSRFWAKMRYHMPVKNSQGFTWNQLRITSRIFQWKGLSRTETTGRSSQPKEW
Protocol Notes: cell-based or functional assay
Documented HEK-Blue activity, No BP, DF-10000 across a set of binders
The answer should be a number; do not append a unit.

See these solved cases before continuing.
Binder | Test Result
IL-18 variant T34N, S36Y, D37E, D40Q, N41Q, K53D, S55D (ligand) YFGKLESKLSVIRNLNDQVLFIDQGNRPLFEDMNDYEMRQQAPRTIFIISMYDDDQPRGMAVTISVKSEKISTLSSENKIISFKEMNPPDNIKDTKSDIIFFQRSVPGHDNKMQFESSSYEGYFLASEKERDLFKLILKKEDELGDRSIMFTVQNED | 0.11
IL-18 variant K53H, S55Y, Q56H (ligand) YFGKLESKLSVIRNLNDQVLFIDQGNRPLFEDMTDSDMRDNAPRTIFIISMYHDYHPRGMAVTISVKSEKISTLSSENKIISFKEMNPPDNIKDTKSDIIFFQRSVPGHDNKMQFESSSYEGYFLASEKERDLFKLILKKEDELGDRSIMFTVQNED | 0.12

--- query ---
Documented HEK-Blue activity, No BP, DF-10000 of IL-18 variant K8R, L9G, S10C, K53G, S55A, R104G (ligand) YFGKLESRGCVIRNLNDQVLFIDQGNRPLFEDMTDSDMRDNAPRTIFIISMYGDAQPRGMAVTISVKSEKISTLSSENKIISFKEMNPPDNIKDTKSDIIFFQGSVPGHDNKMQFESSSYEGYFLASEKERDLFKLILKKEDELGDRSIMFTVQNED : 0.1

The reported measurements were obtained from patent US20240182536A1.
